Biological target: Type-2 angiotensin II receptor (Rattus norvegicus, UniProt P35351)
Sequence (P35351 whole entry): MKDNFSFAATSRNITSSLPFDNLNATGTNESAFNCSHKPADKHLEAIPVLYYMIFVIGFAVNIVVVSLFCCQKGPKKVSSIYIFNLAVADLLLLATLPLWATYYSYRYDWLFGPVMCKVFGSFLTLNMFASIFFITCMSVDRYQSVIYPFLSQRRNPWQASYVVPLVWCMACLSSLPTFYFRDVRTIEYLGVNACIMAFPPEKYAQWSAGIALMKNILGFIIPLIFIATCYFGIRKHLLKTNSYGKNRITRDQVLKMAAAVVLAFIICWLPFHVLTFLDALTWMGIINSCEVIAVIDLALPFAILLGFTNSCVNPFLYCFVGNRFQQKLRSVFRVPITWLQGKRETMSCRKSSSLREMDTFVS
Experiment: […] inhibitory concentration against AT2 receptor of rat adrenal membrane
pIC50: −log10 of the molar value.
Outcome: Yes for pIC50 of at least 9; No for anything lower.

Solved cases (2 shown):
INSERT INTO measurements (compound_structure_string, discrete_label) VALUES
  ('CCc1nc2ccc(NC(=O)N(C)C(C)C)cc2c(=O)n1Cc1ccc(-c2ccccc2S(=O)(=O)NC(=O)OCCC(C)C)cc1F', 'Yes'),
  ('CCCc1nc2ccc(NC(=O)N3CCOCC3)cc2c(=O)n1Cc1ccc(-c2ccccc2S(=O)(=O)NC(=O)OCCC(C)C)cc1F', 'Yes');

Input line: Item Cc1nc2ccc(NC(=O)N(C)C)cc2c(=O)n1Cc1ccc(-c2ccccc2S(=O)(=O)NC(=O)OCCC2CC2)cc1F with pIC50 of 9 or above?
Output line: No

Input line: Can CCCCc1nc2ccc(NC(=O)N(C)C(C)C)cc2c(=O)n1Cc1ccc(-c2ccccc2S(=O)(=O)NC(=O)OCCC(C)C)cc1F be said to have pIC50 at or above 9?
Output line: Yes

---

Biological target: Angiotensin II receptor (Rattus norvegicus) (UniProt P29089+P25095+P35351)
Test: Ratio of inhibitory concentration against AT2 receptor and AT1 receptor of rat adrenal membrane
A collection of molecules and their measured Ratio
Form: value (number only, do not type unit).

Consider the worked cases shown below.
INSERT INTO measurements (compound_structure_string, readout_value) VALUES
  ('CCNC(=O)Nc1ccc2nc(CC)n(Cc3ccc(-c4ccccc4S(=O)(=O)NC(=O)c4ccccc4F)cc3F)c(=O)c2c1', 1.4),
  ('CCc1nc2ccc(NC(=O)N(C)C(C)C)cc2c(=O)n1Cc1ccc(-c2ccccc2S(=O)(=O)NC(=O)COCC(C)C)cc1F', 0.3),
  ('CCCCc1nc2ccc(NC(=O)N(C)C(C)C)cc2c(=O)n1Cc1ccc(-c2ccccc2S(=O)(=O)NC(=O)OCCC2CC2)cc1F', 1.5),
  ('CCCc1nc2ccc(NC(=O)NC(C)C)cc2c(=O)n1Cc1ccc(-c2ccccc2S(=O)(=O)NC(=O)c2ccc(CC)cc2F)cc1F', 2.3),
  ('Cc1nc2ccc(NC(=O)NC(C)C)cc2c(=O)n1Cc1ccc(-c2ccccc2S(=O)(=O)NC(=O)OCCC(C)C)cc1F', 1.2);

CCc1ccc(C(=O)NS(=O)(=O)c2ccccc2-c2ccc(Cn3c(CC)nc4ccc(NC(=O)N(C)C(C)C)cc4c3=O)c(F)c2)cc1 has a reported Ratio of 2.5

The reported Ratio of the molecule CCc1nc2ccc(NC(=O)N(C)C(C)C)cc2c(=O)n1Cc1ccc(-c2ccccc2S(=O)(=O)NC(=O)OCC=C(C)C)cc1F was 2.7

---

Molecular target: UniProt:P34976
Sequence (P34976 whole entry): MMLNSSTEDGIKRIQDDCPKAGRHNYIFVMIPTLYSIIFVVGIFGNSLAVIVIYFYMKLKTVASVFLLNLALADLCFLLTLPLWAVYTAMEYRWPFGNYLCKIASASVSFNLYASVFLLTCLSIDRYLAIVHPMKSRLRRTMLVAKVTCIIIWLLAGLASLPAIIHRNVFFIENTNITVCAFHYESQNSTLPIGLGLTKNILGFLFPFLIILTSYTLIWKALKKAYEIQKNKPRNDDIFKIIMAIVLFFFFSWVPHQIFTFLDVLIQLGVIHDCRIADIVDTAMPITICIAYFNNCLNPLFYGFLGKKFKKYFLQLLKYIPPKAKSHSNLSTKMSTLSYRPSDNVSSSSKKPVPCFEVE
METRIC NAME: pIC50
Friendly reminder that pIC50 comes from taking -log10 of the concentration in mol/L.

INSERT INTO results (compound_structure_string, target, metric_name, readout_value) VALUES
  ('Cc1nc2ccc(NC(=O)NC(C)C)cc2c(=O)n1Cc1ccc(-c2ccccc2S(=O)(=O)NC(=O)OCCC(C)C)cc1F', 'UniProt:P34976', 'pIC50', 8.92),
  ('CCCCc1nc2ccc(NC(=O)N(C)C(C)C)cc2c(=O)n1Cc1ccc(-c2ccccc2S(=O)(=O)NC(=O)OCCC2CC2)cc1F', 'UniProt:P34976', 'pIC50', 9.89),
  ('CCCc1nc2ccc(NC(=O)NC(C)C)cc2c(=O)n1Cc1ccc(-c2ccccc2S(=O)(=O)NC(=O)c2ccc(CC)cc2F)cc1F', 'UniProt:P34976', 'pIC50', 9.70),
  ('CCc1nc2ccc(NC(=O)NC(C)C)cc2c(=O)n1Cc1ccc(-c2ccccc2S(=O)(=O)NC(=O)OCCC2CC2)cc1F', 'UniProt:P34976', 'pIC50', 9.04),
  ('CCc1ccc(C(=O)NS(=O)(=O)c2ccccc2-c2ccc(Cn3c(CC)nc4ccc(NC(=O)NC(C)C)cc4c3=O)c(F)c2)c(F)c1', 'UniProt:P34976', 'pIC50', 9.72);

Record summary for CCNC(=O)Nc1ccc2nc(CC)n(Cc3ccc(-c4ccccc4S(=O)(=O)NC(=O)c4ccccc4F)cc3F)c(=O)c2c1 : reported pIC50 = 8.40

Reported pIC50 ( CCCCOC(=O)NS(=O)(=O)c1ccccc1-c1ccc(Cn2c(CCCC)nc3ccc(NC(=O)N(C)C(C)C)cc3c2=O)c(F)c1 ) = 9.72
